Property: TGI; scope: individual molecules
Tested on: MOLT-4 leukemia
Test description: NCI tumour cell line growth inhibition, 48 h
Numeric only. Scale: µM

Smiles structure | Result value
O=C(/C=C/c1ccccc1)n1c(-c2ccc(Cl)cc2)nc2ccccc21 | 6.73

Query string: Give the measured TGI for CC1=Nc2sc3c(c2C2=NCCN12)CCCC3
Result string: 60.5

Query string: Indicate the recorded TGI value for this molecule: Cc1c(C(=O)/C=C/c2ccccc2O)c(=O)n(-c2ccccc2)n1C
Result string: 63.2

Query string: Note TGI for the molecule shown: COc1ccc2nc3cc([N+](=O)[O-])ccc3c(NCCCN(C)C)c2c1
Result string: 0.68

Query string: # return recorded TGI for entry O=c1c(=O)c2c(Br)sc(Br)c2c1=O
Result string: 48.3

###

System: EKVX NSCLC
Test description: NCI tumour cell line growth inhibition, 48 h; in the data active means GI50 below about 0.43 µM; inactive means the rest
Field 'call' accepts class 1 = active, class 0 = inactive

# count of solved cases: 3
Compound | Label
Cc1cc(N2CCSCC2)nc(NC2CCCC(Nc3ccnc4cc(Cl)ccc34)C2)n1 (centres undefined) | class 0
C=C(OC1C(C)=C2C(C1OC(=O)CCCCCCC)C(C)(OC(C)=O)CC(OC(=O)CCC)C1(O)C2OC(=O)C1(C)O)/C(C)=C/C (centres undefined) | class 1
CNC(=O)Cc1nc(-c2cccc(NS(=O)(=O)c3c(F)cccc3F)c2F)c(-c2ccnc(Nc3ccccc3)n2)s1 | class 0

Query compound follows.
Query string: Which outcome was entered for the compound NC(=O)c1cccc(Nc2nccc(Nc3cccc4[nH]ncc34)n2)c1 in this test?
Result string: class 0

###

Tested on: IGROV1 ovarian
Test description: NCI tumour cell line growth inhibition, 48 h
Measurement kind: GI50

Worked examples, 4 compounds total:
Compound | Tested target | Result value
COc1ccc2c(c1)CC[C@H](O)/C2=C/c1cc(OC)c(OC)c(OC)c1 | IGROV1 ovarian | 1.38 µM
C=C1CCC2C(C)(COC(=O)CC)C(OC(=O)CC)CCC2(C)C1C/C=C1/C(=O)OCC1OC(=O)CC (stereo not given) | IGROV1 ovarian | 1.9 µM
COC(=O)Cc1ccc(Oc2cnc3cc(F)c(F)cc3n2)cc1 | IGROV1 ovarian | > 100 µM
CC(C)(C)CC(C)(C)NCc1cc(C(C)(C)C)cc(CNC(C)(C)CC(C)(C)C)c1O | IGROV1 ovarian | 3.93 µM

Query string: Answer with the recorded GI50 for the compound listed here: COc1ccc(C(=O)c2cc3c(N)c(C(=O)Nc4ccc(C)cc4)sc3nc2C)cc1
Result string: 6.25 µM

###

Here, each record is paired with measured TGI data.
System: COLO 205 colon
Test description: NCI tumour cell line growth inhibition, 48 h
Use µM as the unit, but write only the number.

Query string: Answer with TGI of CC[N+]1(C)CCC(O)(c2ccc(OC)cc2)C(C(=O)c2ccc(OC)cc2)C1 (stereo unspecified) measured for COLO 205 colon.
Result string: 10.6

Query string: Specify the recorded TGI for Cc1ccc(N(CC(=O)Nc2ccc(S(=O)(=O)N3CCC(N4CCCC4)CC3)cc2)S(=O)(=O)c2ccc(Cl)cc2)cc1 , system: COLO 205 colon.
Result string: 3.39

Query string: Please indicate recorded TGI of COc1ccc2nc3cc([N+](=O)[O-])ccc3c(NCCCN(C)C)c2c1 measured with COLO 205 colon.
Result string: 2.17

Query string: Specify TGI for COc1cccc(/C=C/C(=O)c2ccc(Cl)cc2Cl)c1 , system COLO 205 colon.
Result string: 18.4

Query string: Answer with TGI of COC(=O)N1CC2C3C4CC(C(c5ccccc5)=C4c4ccccc4)C3C21 (stereo unspecified) measured for COLO 205 colon.
Result string: 45.2

Query string: Given C=C1C(=O)O[C@@H]2C[C@]3(C)CC[C@]4(C)[C@H](CC[C@@H]5[C@@]6(C)CCC(=O)C(C)(C)[C@@H]6CC[C@]54C)[C@H]3[C@H]12 , report its TGI on COLO 205 colon.
Result string: 21.6

###

System: HS 578T breast
Test description: NCI tumour cell line growth inhibition, 48 h
Overview of reported TGI across a group of compounds:

Record excerpt, results attached:
Compound | Measurement kind | Result value
Cc1ccc(N(CC(=O)Nc2ccc(S(=O)(=O)N3CCC(N4CCCC4)CC3)cc2)S(=O)(=O)c2ccc(Cl)cc2)cc1 | TGI | 4.39 µM
Cc1ccc(C)c(C2NC(=O)c3ccccc3N2)c1 (stereo not given) | TGI | 7.73 µM
COc1cc(CNc2ccccc2C(=O)N2CCN(C(=O)c3cc(-c4cc(OC)c(OC)c(OC)c4)n4nc(-c5ccccc5)cc4n3)CC2)cc(OC)c1OC | TGI | > 100 µM
CCOC(=O)/C(C#N)=C/c1ccnc2ccccc12 | TGI | > 100 µM

Below: the item to evaluate.
Query string: Answer briefly: TGI recorded on HS 578T breast for CN/N=C(\C)C(CN(C)C)C(c1ccccc1)c1c(O)c2ccccc2oc1=O (stereo not given)
Result string: > 100 µM

###

Known TGI of a selection of compounds
Test system: BT-549 breast
Test description: NCI tumour cell line growth inhibition, 48 h

Compound | TGI
CC(=O)OC1COC(Nc2nc(NCc3ccccc3)n(C)c(=O)c2N=O)C(OC(C)=O)C1OC(C)=O (stereo unspecified) | > 10 µM

Now for another entry.
Query string: Supply measured TGI of OCC(O)c1nc2ccc3[nH]ncc3c2c2c1CCCC2 (stereo unspecified) in your reply.
Result string: 2.2 µM

###

Each item that follows carries a reported TGI.
Test system: HCC-2998 colon
Test description: NCI tumour cell line growth inhibition, 48 h
Number in µM, nothing else.

Some compounds with recorded TGI:
Compound | TGI / µM
O=C(Nc1cccc(O)c1)C(=O)C(C(=O)c1ccc(Cl)c(Cl)c1)C1OC(=O)c2ccccc21 (stereo not given) | 29.2
Cc1c2c(OCCN3CCCCC3)nn(C)c(=O)c2c(C)n1-c1ccccc1 | 65.3
CC[N+]1(C)CCC(O)(c2ccc(OC)cc2)C(C(=O)c2ccc(OC)cc2)C1 (stereo not given) | 34.8
CN1C(=O)N[C@H]2[C@@H]3NC(=O)c4ccc(Br)n4[C@@H]3C[C@]21O | 1.75

Would you kindly look at the next entry?
Query string: Specify measured TGI for O=C1OC(O)C(Oc2c(Cl)cccc2Cl)=C1Cl (stereo not given) .
Result string: 37.9

###

Test system: IGROV1 ovarian
Test description: NCI tumour cell line growth inhibition, 48 h
Measurement kind: TGI

Past entries and their recorded results:
Compound | TGI
CC(=O)OCC1OC(Oc2cc(C)c(O)cc2C/C=C(\C)CC/C=C(\C)CC(=O)CC(C)C)C(O)C(OC(C)=O)C1OC(C)=O (centres undefined) | > 50 µM
C/C=C/C1OC(O)(C(C)C(O)[C@H](C)C2OC(=O)/C(OC)=C/C(C)=C/[C@@H](C)[C@@H](O)[C@@H](C)C(O)C(C)C/C(C)=C/C=C/C2OC)C[C@@H](OC2CC(O)C(OC(N)=O)C(C)O2)C1C (some centres undefined) | 12.9 µM

Query string: # return TGI of CC1(CCC(=O)OC2CCCCC2)OCCO1 (system: IGROV1 ovarian)
Result string: > 100 µM

Query string: Please report the measured TGI for O=C(Cc1ccccc1)Nn1c(-c2ccccc2)nc2ccccc2c1=O tested on IGROV1 ovarian.
Result string: > 100 µM

###

System: DMS 114 small cell lung
Test description: NCI tumour cell line growth inhibition, 48 h
The compounds listed here are annotated with their TGI.

Previously resolved entries follow.
Compound | Tested target | TGI
CCc1cccc(CC)c1NC(=O)C1=C(C)NC(C)=C(C(=O)Nc2c(CC)cccc2CC)C1c1ccc([N+](=O)[O-])cc1 | DMS 114 small cell lung | 52.4 µM
Cn1c(=O)c2nc(-c3ccc(Cl)cc3)oc2n(C)c1=O | DMS 114 small cell lung | > 100 µM
Cc1cc(=O)oc2c(C)c(OCCCOc3ccc4c(C)cc(=O)oc4c3C)ccc12 | DMS 114 small cell lung | > 100 µM
CC(C)(C)C(=O)OC12/C(=N/O)CCCCCC1c1ccccc12 (stereo unspecified) | DMS 114 small cell lung | 35.4 µM
CC[N+]1(C)CCC(O)(c2ccc(OC)cc2)C(C(=O)c2ccc(OC)cc2)C1 (stereo unspecified) | DMS 114 small cell lung | 45.9 µM
CC1=NN(C(=O)c2ccc([N+](=O)[O-])cc2)C(=O)C1N=Nc1ccccc1C(=O)O (stereo unspecified) | DMS 114 small cell lung | > 100 µM
O=c1[nH]c2cc(Cl)ccc2nc1/C(=N\O)C(O)c1ccc([N+](=O)[O-])cc1 (stereo unspecified) | DMS 114 small cell lung | > 100 µM
COC(=O)C1[C@H](c2cc(OC)c(OC)c(OC)c2)OC(=O)C1(C(=O)OC)C(=O)c1ccc2c(c1)OCO2 (stereo partly specified) | DMS 114 small cell lung | > 100 µM
CC(C)C1=CC23CCC4C(C)(C(=O)O)CCCC4(C)C2CC1C1C(=O)N(c2ccccc2)C(=O)C13 (stereo unspecified) | DMS 114 small cell lung | > 100 µM
O=C1CCCCCCCCCCC1CN1CCCCC1 (stereo unspecified) | DMS 114 small cell lung | > 100 µM

Here's the next entry for you.
Query string: Entry CCOC(=N)CC(=O)c1ccccc1 needs its TGI filled in; supply it.
Result string: > 100 µM
